// data source = paper PMC10251802

Test system: A549
ASSAY PROTOCOL: MTT anti-proliferative assay, A549
Format: cell-based, human
REPORTED CONDITIONS: Homo sapiens, A549, read-out: Cell lines IC50 A549
Values of IC50 strictly less than 20 µM map to T, and values of at least 20 µM map to F.

Consider the compound CC1CCc2c(sc3ncnc(NN)c23)C1 (stereo not drawn) . Is its IC50 strictly less than 20 µM?
T

Consider the compound COc1ccc(Nc2ncnc3sc4c(c23)CCC(C)C4)cc1 (stereo not drawn) . Is its IC50 strictly less than 20 µM?
F

Consider the compound CC1CCc2c(sc3ncnc(Nc4ccc(S(N)(=O)=O)cc4)c23)C1 (stereo not drawn) . Is its IC50 strictly less than 20 µM?
T

Consider the compound CC1CCc2c(sc3ncnc(Nc4ccc(N)cc4)c23)C1 (stereo not drawn) . Is its IC50 strictly less than 20 µM?
F

Consider the compound C#Cc1cccc(Nc2ncnc3cc(OCCOC)c(OCCOC)cc23)c1 [Erlotinib, reference compound] . Is its IC50 strictly less than 20 µM?
T

Consider the compound CC1CCc2c(sc3ncnc(Nc4ccc(Cl)cc4)c23)C1 (stereo not drawn) . Is its IC50 strictly less than 20 µM?
F

Consider the compound CC1CCc2c(sc3ncnc(NNC(N)=S)c23)C1 (stereo not drawn) . Is its IC50 strictly less than 20 µM?
F

Consider the compound CC1CCc2c(sc3ncnc(Nc4ccccc4F)c23)C1 (stereo not drawn) . Is its IC50 strictly less than 20 µM?
T
